Cited source: paper PMC5640156

studySystem: P450cam (Pseudomonas putida, UniProt P00183, R187A)
Sequence (P00183 2-415 R187A): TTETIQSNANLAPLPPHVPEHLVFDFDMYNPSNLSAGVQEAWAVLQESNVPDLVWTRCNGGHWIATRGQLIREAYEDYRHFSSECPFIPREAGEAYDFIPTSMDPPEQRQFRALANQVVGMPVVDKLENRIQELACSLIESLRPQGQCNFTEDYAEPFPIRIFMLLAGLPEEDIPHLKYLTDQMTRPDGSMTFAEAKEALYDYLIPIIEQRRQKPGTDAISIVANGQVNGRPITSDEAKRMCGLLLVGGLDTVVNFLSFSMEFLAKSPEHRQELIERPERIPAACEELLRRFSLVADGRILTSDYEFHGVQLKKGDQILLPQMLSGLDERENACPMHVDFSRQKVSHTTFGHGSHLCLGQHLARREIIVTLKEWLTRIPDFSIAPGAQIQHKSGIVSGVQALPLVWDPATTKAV
protocolDescription: isothermal titration calorimetry
assayMetric: pKd
As a rule, pKd stands for the negative log10 of the concentration, concentration in M.

Query: Any idea what pKd was measured for CC1(C)[C@@H]2CC[C@@]1(C)C(=O)C2 [D-camphor] ?
Result: 4.49
